target: hKv1.3 (Homo sapiens, UniProt P22001); assay: hKv1.3 % inhibition at 1 uM (Table 1); assay type: cell-based; details: read-out: hKv1.3 % inh. 1 uM
Sequence (P22001 whole entry): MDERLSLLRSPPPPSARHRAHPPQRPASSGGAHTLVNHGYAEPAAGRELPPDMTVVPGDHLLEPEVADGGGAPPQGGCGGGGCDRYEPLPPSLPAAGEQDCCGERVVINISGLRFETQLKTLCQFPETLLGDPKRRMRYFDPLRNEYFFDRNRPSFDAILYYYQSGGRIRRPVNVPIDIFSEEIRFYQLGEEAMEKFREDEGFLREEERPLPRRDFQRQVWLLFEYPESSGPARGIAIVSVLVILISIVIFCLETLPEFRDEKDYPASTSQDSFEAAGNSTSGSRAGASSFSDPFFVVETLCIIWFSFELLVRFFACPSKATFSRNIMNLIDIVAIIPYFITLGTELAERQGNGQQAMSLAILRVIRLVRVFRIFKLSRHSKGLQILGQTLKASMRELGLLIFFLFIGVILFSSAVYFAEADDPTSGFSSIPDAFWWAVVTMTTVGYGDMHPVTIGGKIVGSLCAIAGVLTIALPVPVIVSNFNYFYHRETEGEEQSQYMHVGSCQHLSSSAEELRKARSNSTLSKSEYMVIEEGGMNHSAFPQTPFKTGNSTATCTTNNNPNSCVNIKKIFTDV
measurement kind: inhibition at 1 µM
Remember to quote the unit after the number.

Below: 2 molecules and their reported inhibition at 1 µM.
# chemical smiles, assay target, inhibition at 1 µM
data = [
    ("CCN1Cc2ccc(N(Cc3ccc(Cl)cc3)S(=O)(=O)c3cn(C)cn3)cc2C1=O", "hKv1.3 (Homo sapiens, UniProt P22001)", "89.7%"),
    ("O=C1NCCc2ccc(N(Cc3ccc(Cl)cc3)S(=O)(=O)c3cccnc3)cc21", "hKv1.3 (Homo sapiens, UniProt P22001)", "90.5%"),
]

# context switch: different molecule, same inhibition at 1 µM
Any idea what its inhibition at 1 µM is? The molecule is Cn1ccc(S(=O)(=O)N(Cc2ccc(Cl)cc2)c2ccc3c(c2)C(=O)NCC3(C)C)n1 88.3%
